- tgt: Heat shock protein HSP90 (Homo sapiens, UniProt P07900+P08238)
- procedure.details: Ability to degrade Her2 in MCF7 cells
- Format: functional, cell-based
Can you tell me IC50 for the items I'm about to list?
One number for each entry, in nM.

A selection of reference data follows.
CC(C)(C)NCCCn1c(Sc2nc3cccc(Cl)c3s2)nc2c(N)ncnc21 150
CCCCn1c(Sc2nc3c(Cl)cccc3s2)nc2c(N)ncnc21 15000
Nc1ncnc2c1nc(Sc1nc3cccc(Cl)c3s1)n2CCO 300
N#CCCCCn1c(Sc2nc3cccc(Cl)c3s2)nc2c(N)ncnc21 110

Each molecule below has a reported value. Please supply its IC50.
1. CC(=O)OCCn1c(Sc2nc3cccc(Cl)c3s2)nc2c(N)ncnc21
2. CCCCn1c(Sc2nc3cc(Cl)ccc3s2)nc2c(N)ncnc21
3. CCCCn1c(Sc2nc3cccc(OCC)c3s2)nc2c(N)ncnc21
4. CC(C)(C)CNCCn1c(Sc2nc3cccc(Cl)c3s2)nc2c(N)ncnc21
5. CCCCn1c(Sc2nc3cncc(Cl)c3s2)nc2c(N)ncnc21
6. CCCCCn1c(Sc2nc3cccc(Cl)c3s2)nc2c(N)ncnc21
7. Nc1ncnc2c1nc(Sc1nc3cccc(Cl)c3s1)n2CCNC1CC1

A.
150
20000
100000
35
280
700
110

Where do the numbers come from? From ChEMBL document CHEMBL1146181.
